Measured values drawn from paper PMC3404088 for this set.

target: T1, Aβ1–42 fibrils (UniProt P05067 672-713)
T1 construct: amyloid-β peptide Aβ1–42, cut from the amyloid precursor protein (APP), in fibrillar form; Aggregated (fibrillar) state of the same peptide as m15; also called fibrillar Aß1–42; Aβ fibrils; source: bought: JPT Biotech or Bachem AG (HPLC purified peptide); fibrils formed at 37°C (7 days in PBS pH 7.4 for SPR; five days in 50 mM Tris-HCl pH 7.4 for ELISA)
T1 sequence (P05067 672-713): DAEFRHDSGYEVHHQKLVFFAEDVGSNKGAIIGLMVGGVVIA
assay procedure: SPR; Biacore 1000; Aβ1–42 fibrils (6800 RU) immobilised on a CM5 chip by amine coupling; PBS pH 7.4; analytes 50 µg/ml, 5 µl/min for 2 minutes, ambient temperature; semi-quantitative: response in % of ACI-80-Kϕ
study conditions: both partners purified
Square brackets hold non-standard residues; d marks the D form. Primed or numbered codes have the meaning given here. Ends that are not written are not given here. FITC′ = fluorescein isothiocyanate (ϕ)
binders and their reported Interaction [%] (maximal response during injection, relative to ACI-80-Kϕ)
All answers are understood in %, so give the number only.

A selection of reference data follows.
INSERT INTO measurements (binder, units_label, reported_measurement) VALUES
  ('[dP][dS][dF][dY][dR][dH][dI][dS][dP][dA][dQ][dV][dK](FITC′) (D-enantiomeric derivative of ACI-80 (D1): Q1P, H3F, added C-terminal lysine; also called D1-Q1P-H3F-Kϕ; source: synthetic peptide (JPT Peptide Technologies GmbH, Berlin)) [ACI-86-Kϕ]', '%', 21),
  ('[dP][dS][dH][dY][dR][dH][dI][dS][dP][dA][dQ][dV][dK](FITC′) (D-enantiomeric derivative of ACI-80 (D1): Q1P, added C-terminal lysine; also called D1-Q1P-Kϕ; source: synthetic peptide (JPT Peptide Technologies GmbH, Berlin)) [ACI-83-Kϕ]', '%', 600),
  ('[dP][dS][dH][dY][dR][dH][dI][dS][dP][dA][dQ][dK][dK](FITC′) (D-enantiomeric derivative of ACI-80 (D1): Q1P, V12K, added C-terminal lysine; also called D1-Q1P-V12K-Kϕ; source: synthetic peptide (JPT Peptide Technologies GmbH, Berlin)) [ACI-89-Kϕ]', '%', 518),
  ('[dS][dH][dY][dR][dH][dI][dS][dP][dA][dQ][dK][dK](FITC′) (also: [19F]-4-fluorobenzoyl label, place not given here, D-enantiomeric derivative of ACI-80 (D1): N-terminal glutamine deleted (Q1X), V12K, added C-terminal lysine, fluorinated; also called D1-Q1X-V12K-K[^19F]ϕ; source: synthetic peptide, reacted with [^19F]-N-succinimidyl-4-fluorobenzoate (SFB), HPLC purified) [[^19F]-ACI-88-Kϕ]', '%', 294);

Now for a further binder.
Qu. // Interaction [%] (maximal response during injection, relative to ACI-80-Kϕ) lookup, key: [dQ][dS][dH][dY][dR][dH][dI][dS][dP][dA][dQ][dK][dK](FITC′) (also: [19F]-4-fluorobenzoyl label, place not given here, D-enantiomeric derivative of ACI-80 (D1): V12K, added C-terminal lysine, fluorinated; The text says V12K was made to enable fluorination; also called D1-V12K-K[^19F]ϕ; source: synthetic peptide, reacted with [^19F]-N-succinimidyl-4-fluorobenzoate (SFB), HPLC purified) [[^19F]-ACI-87-Kϕ]
Ans. 153
